Below, each entry is listed with its recorded EC50.
target system: T1, human TSLP recombinant protein (human, UniProt Q969D9 29-159, biotinylated in the blocking and cell-binding assays (sites not given))
T1 construct: also called biotinylated human TSLP protein
test method notes: ELISA on coated human TSLP;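 also: binding detected by TMB colour development for 10 min at 37 °C, then absorbance measured at 450 nm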
Give the value in nM but do not write nM after it.

# binder, EC50 [nM]
data = [
    ("Ab22 (antibody, V domains shown, Humanized; also called h39G5VHv1/h71G4VKv1; h39G5VHv1/h7IG4VKv1 hIgG1) VH: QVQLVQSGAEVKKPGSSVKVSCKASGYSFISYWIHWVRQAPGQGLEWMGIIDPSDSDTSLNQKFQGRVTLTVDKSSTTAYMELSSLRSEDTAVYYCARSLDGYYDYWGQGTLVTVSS VL: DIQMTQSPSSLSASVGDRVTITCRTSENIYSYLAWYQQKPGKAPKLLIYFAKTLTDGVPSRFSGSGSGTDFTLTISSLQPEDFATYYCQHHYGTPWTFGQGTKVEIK", 0.29),
]

Turning now to a further record.
input: I'd like to know its EC50. The binder in question is Ab6 (antibody, V domains shown, Humanized; also called h39G5VHv6/h39G5VKv1) VH: QVQLVQSGAEVKKPGSSVKVSCKASGYTFTDYWMHWVRQAPGQGLEWMGTIDNSDSDTSLNQKFQGRVTLTVDTSTSTAYMELSSLRSEDTAVYYCARSLDGYYDYWGQGTLVTVSS VL: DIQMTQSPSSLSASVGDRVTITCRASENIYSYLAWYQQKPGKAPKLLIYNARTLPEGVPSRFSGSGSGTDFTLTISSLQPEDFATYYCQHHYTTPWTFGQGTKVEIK
output: 2.79
